The measured values listed here are drawn from paper PMC8472790.

Recorded logP values for a group of compounds are listed next.
- Protocol: Distribution coefficient n-octanol/water, shake-flask method
- Format: physicochemical
- Conditions: pH = 7.4, n-octanol/phosphate buffered saline, 298 K

Compound | logP
c1ccc(N(c2ccccn2)c2c3ccccc3nc3ccccc23)nc1 [Complex L2] | 0.59
c1ccc(N(c2ccccn2)c2c3ccccc3cc3ccccc23)nc1 [Complex L1] | 1.2
